All values here come from patent US9758495B2.

- testTarget: GST-hMDM2 (aa 1-188) / biotinylated-p53 (aa 1-83) (Homo sapiens (Human), UniProt Q00987)
- Sequence (Q00987 1-188): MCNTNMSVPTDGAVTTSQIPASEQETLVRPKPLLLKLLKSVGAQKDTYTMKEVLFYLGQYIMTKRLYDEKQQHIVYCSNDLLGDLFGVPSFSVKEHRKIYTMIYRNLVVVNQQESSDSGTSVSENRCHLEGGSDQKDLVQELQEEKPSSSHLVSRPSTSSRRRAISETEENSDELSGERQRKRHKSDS
- methodDescription: Homogenous Time-Resolved Fluorescence Assay (HTRF2 assay), inhibition of HDM2-p53 interaction
- reportedConditions: 0.2 nM GST-hMDM2 (1-188), 0.5 nM biotinylated-p53 (1-83), 0.18 nM SA-XLent, 100 mM KF
reportedMetric: IC50 (nM)
Write the answer as a number in nM, unit excluded.

[
  {
    "molecule": "CC(C)(C)S(=O)(=O)C[C@H](C1CC1)N1C(=O)[C@@](C)(Cc2ncc(C(=O)O)s2)O[C@H](c2cccc(Cl)c2)[C@H]1c1ccc(Cl)c(F)c1 (single isomer, unassigned)",
    "reportedMetric": "IC50",
    "endpointValue": 0.121
  },
  {
    "molecule": "CC(C)(C)S(=O)(=O)C[C@H](C1CC1)N1C(=O)[C@](C)(Cc2ccc(C(=O)O)c[n+]2[O-])O[C@H](c2cccc(Cl)c2)[C@H]1c1ccc(Cl)cc1 (single isomer, unassigned)",
    "reportedMetric": "IC50",
    "endpointValue": 0.23
  },
  {
    "molecule": "CC(C)(C)S(=O)(=O)C[C@H](C1CC1)N1C(=O)[C@@](C)(Cc2ccc(C(=O)O)cn2)O[C@H](c2cccc(Cl)c2)[C@H]1c1ccc(Cl)c(F)c1 (single isomer, unassigned) [Example 6]",
    "reportedMetric": "IC50",
    "endpointValue": 0.11
  }
]

Shifting focus to the molecule that follows.
(Q) Tell us which IC50 value is on record for CC(C)(C)S(=O)(=O)C[C@H](C1CC1)N1C(=O)[C@@](C)(Cc2ccc(C(=O)O)c[n+]2[O-])O[C@H](c2cccc(Cl)c2)[C@H]1c1ccc(Cl)cc1 (single isomer, unassigned)
(A) 1.85
